# PROCEDURE_TEXT: cytotoxicity on macrophages (Alamar blue) and selectivity index
# Format: cell-based, mouse
# RECORDED_CONDITIONS: mouse, J774A.1 macrophage cells; cytotoxicity on macrophage cell J774A.1 at 6 h
READOUT: log10(CC50 at 6 h) (log10 of the value in µg/mL)
Give log10 of CC50 at 6 h, with CC50 at 6 h taken in µg/mL.

Task: Using the record for CC(C)OC(=O)c1ccc2c(c1)[n+]([O-])c(C(=O)c1cccs1)c(C(F)(F)F)[n+]2[O-] , report its log10(CC50 at 6 h).
Output: 1.62

Task: Using the record for CCCOC(=O)c1ccc2c(c1)[n+]([O-])c(C(=O)c1cccs1)c(C(F)(F)F)[n+]2[O-] , report its log10(CC50 at 6 h).
Output: 1.39

Task: Using the record for CCOC(=O)c1ccc2c(c1)[n+]([O-])c(C(=O)c1cccs1)c(C(F)(F)F)[n+]2[O-] , report its log10(CC50 at 6 h).
Output: 0.22

Task: Using the record for COC(=O)c1ccc2c(c1)[n+]([O-])c(C(=O)c1ccccc1)c(C(F)(F)F)[n+]2[O-] , report its log10(CC50 at 6 h).
Output: 1.55

Task: Using the record for CC(C)OC(=O)c1ccc2c(c1)[n+]([O-])c(C(=O)C(C)C)c(C(F)(F)F)[n+]2[O-] , report its log10(CC50 at 6 h).
Output: 1.66

###

Would you kindly list log10 MIC for each of these compounds?
# Tested on: Mycobacterium tuberculosis strain H37Rv
# PROCEDURE_TEXT: microplate Alamar blue assay (MABA)
# Type: cell-based
# RECORDED_CONDITIONS: Mycobacterium tuberculosis, H37RV, M. tuberculosis H37Rv; lowest concentration effecting 90% inhibition
Give log10 of MIC, with MIC taken in mg/L.

Task: Using the record for CCOC(=O)c1c(-c2ccccc2)[n+]([O-])c2ccc(C(=O)OC)cc2[n+]1[O-] [Compound T-042] , report its log10 MIC.
Output: 0.00

Task: Using the record for CCOC(=O)c1ccc2c(c1)[n+]([O-])c(C(=O)OCC)c(C)[n+]2[O-] [Compound T-015] , report its log10 MIC.
Output: -0.30

Task: Using the record for NNC(=O)c1ccncc1 [INH, isoniazid, reference compound] , report its log10 MIC.
Output: -0.92

Task: Using the record for CCOC(=O)c1ccc2c(c1)[n+]([O-])c(C(=O)OCC)c(-c1ccccc1)[n+]2[O-] [Compound T-043] , report its log10 MIC.
Output: -0.27

Task: Using the record for CCCOC(=O)c1ccc2c(c1)[n+]([O-])c(C(=O)OCC)c(C)[n+]2[O-] [Compound T-090] , report its log10 MIC.
Output: -0.10

Task: Using the record for CCCOC(=O)c1ccc2c(c1)[n+]([O-])c(C(=O)c1cccs1)c(C(F)(F)F)[n+]2[O-] [Compound T-089] , report its log10 MIC.
Output: -0.92

Task: Using the record for CCCOC(=O)c1ccc2c(c1)[n+]([O-])c(C(=O)OCC)c(C(F)(F)F)[n+]2[O-] [Compound T-124] , report its log10 MIC.
Output: 0.48

Task: Using the record for CC(C)OC(=O)c1ccc2c(c1)[n+]([O-])c(C(=O)C(C)(C)C)c(C(C)(C)C)[n+]2[O-] [Compound T-107] , report its log10 MIC.
Output: 0.32

Task: Using the record for COC(=O)c1ccc2no[n+]([O-])c2c1 [Compound T-014] , report its log10 MIC.
Output: 0.88

Task: Using the record for CCCOC(=O)c1ccc2c(c1)[n+]([O-])c(C(=O)OCC)c(C(=O)C(=O)OCC)[n+]2[O-] [Compound T-112] , report its log10 MIC.
Output: 0.15

Task: Using the record for CCCOC(=O)c1ccc2c(c1)[n+]([O-])c(C(=O)c1ccccc1)c(C)[n+]2[O-] [Compound T-132] , report its log10 MIC.
Output: 0.36

Task: Using the record for Cc1c(C(=O)c2ccccc2)[n+]([O-])c2cc(C(=O)OC(C)C)ccc2[n+]1[O-] [Compound T-098] , report its log10 MIC.
Output: 0.66

Task: Using the record for CCCOC(=O)c1ccc2c(c1)[n+]([O-])c(C(C)=O)c(C)[n+]2[O-] [Compound T-126] , report its log10 MIC.
Output: 0.48

###

# System: Mycobacterium tuberculosis strain H37Rv
# PROCEDURE_TEXT: microplate Alamar blue assay (MABA)
# Assay type: cell-based
# RECORDED_CONDITIONS: Mycobacterium tuberculosis, H37RV, M. tuberculosis H37Rv; lowest concentration effecting 90% inhibition
Would you kindly list MIC for each of these compounds?
Lab book: enter the figure in µg/mL, no units written.

Task: Using the record for CC(C)OC(=O)c1ccc2c(c1)[n+]([O-])c(C(=O)c1ccccc1)c(C(F)(F)F)[n+]2[O-] [Compound T-071] , report its MIC.
Output: 1.19

Task: Using the record for COC(=O)c1ccc2c(c1)[n+]([O-])c(C(=O)c1ccccc1)c(C)[n+]2[O-] [Compound T-003] , report its MIC.
Output: 3.47

Task: Using the record for CC(C)OC(=O)c1ccc2no[n+]([O-])c2c1 [Compound T-063] , report its MIC.
Output: 1.4

###

Would you kindly list MIC for each of these molecules?
# Tested on: M. chelonae
# PROCEDURE_TEXT: MIC on nontuberculous Mycobacterium clinical isolate
# Type: cell-based
# RECORDED_CONDITIONS: Mycobacteroides chelonae

Task: Lab note: need MIC for COC(=O)c1ccc2c(c1)[n+]([O-])c(C(=O)c1ccccc1)c(C(F)(F)F)[n+]2[O-] on M. chelonae, anyone have it?
Output: > 10 µg/mL

Task: Lab note: need MIC for CCCOC(=O)c1ccc2c(c1)[n+]([O-])c(C(=O)c1cccs1)c(C(F)(F)F)[n+]2[O-] on M. chelonae, anyone have it?
Output: > 10 µg/mL

Task: Lab note: need MIC for CCOC(=O)c1ccc2c(c1)[n+]([O-])c(C(=O)c1cccs1)c(C(F)(F)F)[n+]2[O-] on M. chelonae, anyone have it?
Output: > 10 µg/mL

Task: Lab note: need MIC for CCCOC(=O)c1ccc2c(c1)[n+]([O-])c(C(=O)OC)c(C)[n+]2[O-] on M. chelonae, anyone have it?
Output: > 10 µg/mL

Task: Lab note: need MIC for COC(=O)c1ccc2c(c1)[n+]([O-])c(C(=O)OC)c(C)[n+]2[O-] on M. chelonae, anyone have it?
Output: 2.5 µg/mL

Task: Lab note: need MIC for CC(C)OC(=O)c1ccc2c(c1)[n+]([O-])c(C(=O)c1cccs1)c(C(F)(F)F)[n+]2[O-] on M. chelonae, anyone have it?
Output: 2.5 µg/mL

Task: Lab note: need MIC for CC(C)OC(=O)c1ccc2c(c1)[n+]([O-])c(C(=O)C(C)C)c(C(F)(F)F)[n+]2[O-] on M. chelonae, anyone have it?
Output: 5 µg/mL

Task: Lab note: need MIC for CCOC(=O)c1ccc2c(c1)[n+]([O-])c(C(C)=O)c(C(F)(F)F)[n+]2[O-] on M. chelonae, anyone have it?
Output: > 10 µg/mL

###

Would you kindly list MIC for each of these compounds?
# Test system: Mycobacterium tuberculosis strain H37Rv
# PROCEDURE_TEXT: microplate Alamar blue assay (MABA)
# Assay type: cell-based
# RECORDED_CONDITIONS: Mycobacterium tuberculosis, H37RV, M. tuberculosis H37Rv; lowest concentration effecting 90% inhibition

Task: Using the record for Cc1c(C(=O)Nc2ccccc2)[n+]([O-])c2cc(C(=O)OC(C)C)ccc2[n+]1[O-] [Compound T-097] , report its MIC.
Output: > 20 µg/mL

Task: Using the record for CCOC(=O)c1ccc2c(c1)[n+]([O-])c(C(=O)c1ccccc1)c(C)[n+]2[O-] [Compound T-004] , report its MIC.
Output: 2.32 µg/mL

Task: Using the record for CCCOC(=O)c1ccc2c(c1)[n+]([O-])c(C(=O)c1ccccc1)c(C(F)(F)F)[n+]2[O-] [Compound T-115] , report its MIC.
Output: 1.5 µg/mL

Task: Using the record for CCCOC(=O)c1ccc2c(c1)[n+]([O-])c(C(=O)OC)c(C)[n+]2[O-] [Compound T-088] , report its MIC.
Output: ≤ 0.15 µg/mL

Task: Using the record for CC(=O)c1c(C)[n+]([O-])c2ccc(C(=O)OC(C)C)cc2[n+]1[O-] [Compound T-084] , report its MIC.
Output: 0.8 µg/mL

Task: Using the record for CCCOC(=O)c1ccc2c(c1)[n+]([O-])c(C(=O)Nc1ccccc1)c(C)[n+]2[O-] [Compound T-125] , report its MIC.
Output: 12.3 µg/mL

Task: Using the record for CCOC(=O)Cc1c(C(=O)OCC)[n+]([O-])c2cc(C(=O)OC)ccc2[n+]1[O-] [Compound T-037] , report its MIC.
Output: 1.2 µg/mL
